System: CEM cells HIV-1 protection, formazan growth assay
Measurement Description: NCI AIDS Antiviral Assay
Measurement Parameters: measured here: growth of uninfected CEM cells
The entries below are paired with their reported pIC50.
Quick note: pIC50 values are minus log10 of concentrations in mol/L.

Look over these answered cases.
[
  {
    "Compound": "O=c1c2ccccc2[se]n1-c1cccnc1",
    "Study Target": "CEM cells HIV-1 protection, formazan growth assay",
    "pIC50": 4.44
  },
  {
    "Compound": "O/N=C/c1ncccc1C1OCCO1",
    "Study Target": "CEM cells HIV-1 protection, formazan growth assay",
    "pIC50": 3.85
  },
  {
    "Compound": "Cc1ccc(C2(C)CC(C)(C)c3ccc(C)cc3O2)c(O)c1 (stereo unspecified)",
    "Study Target": "CEM cells HIV-1 protection, formazan growth assay",
    "pIC50": 4.69
  },
  {
    "Compound": "CCOC(=O)C(NC(=O)c1ccccc1)[CH](c1ccccc1)[Sn]([c]1ccccc1)([c]1ccccc1)[c]1ccccc1 (stereo unspecified)",
    "Study Target": "CEM cells HIV-1 protection, formazan growth assay",
    "pIC50": 4.69
  },
  {
    "Compound": "CC(C)C(NC(=O)c1ccccc1SC(=O)CCCC[n+]1ccccc1)C(N)=O (stereo unspecified)",
    "Study Target": "CEM cells HIV-1 protection, formazan growth assay",
    "pIC50": 5.06
  }
]

Now consider a different compound.
Query: Using known records, supply pIC50 for CCN(CC)CCCC(C)Nc1c(Sc2cnc3cc(Cl)ccc3c2NC(C)CCCN(CC)CC)cnc2cc(Cl)ccc12 (stereo unspecified)
Result: 5.77

###

Test system: CEM cells HIV-1 protection, formazan growth assay
Measurement Description: NCI AIDS Antiviral Assay;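 active means compounds giving half or more protection of infected cells from virus-caused growth loss, again on retest; inactive means the rest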
Experimental: The ability of compounds to protect human CEM cells from HIV-1 infection is measured as a screen for new compounds capable of inhibiting the HIV virus. Five concentrations of drug were tested on uninfected and infected cells and cell growth was measured using a soluble formazan assay. […] Compounds that provided at least 50% protection were retested. Compounds that provided at least 50% protection on retest were listed as moderately active. […]
Pick one: active, inactive

[
  {
    "Compound": "Cc1cccc(C)c1NC(=O)C(=O)C(c1ccccc1Cl)S(=O)(=O)Cc1ccccc1Cl (centres undefined)",
    "Group": "active"
  },
  {
    "Compound": "O=c1c(SCc2ccc(Cl)cc2)c(SCc2ccc(Cl)cc2)cnn1-c1ccccc1",
    "Group": "inactive"
  },
  {
    "Compound": "Cc1ccc(S(=O)(=O)ON2C(=O)c3cccc4cc([N+](=O)[O-])cc(c34)C2=O)cc1",
    "Group": "inactive"
  },
  {
    "Compound": "Nc1c2ccccc2nc2nccnc12",
    "Group": "inactive"
  },
  {
    "Compound": "O=CCC(O)C(O)C(O)CO (centres undefined)",
    "Group": "inactive"
  },
  {
    "Compound": "CCOC(=O)NC(N(C)C(C(C)C)P(=O)(OCC)OCC)(C(F)(F)F)C(F)(F)F (centres undefined)",
    "Group": "inactive"
  }
]

Query: Can you look up the reported call for COc1cccc2c(Nc3ccc(S(=O)(=O)Nc4ncccn4)cc3)c3ccc([N+](=O)[O-])cc3nc12 for me?
Result: inactive

Query: Can you look up the reported call for Clc1ccc(NCc2nnc(CCCCCCCCc3nnc(CNc4ccc(Cl)cc4)o3)o2)cc1 for me?
Result: inactive

Query: Can you look up the reported call for CC(=O)NC(C=O)C(O[C@H](C)C(=O)NC(C)C(=O)NC(CCC(N)=O)C(=O)OCc1ccccc1)C(O)C(O)COC(=O)CCNc1c2ccccc2nc2cccc([N+](=O)[O-])c12 (some centres undefined) for me?
Result: inactive
